# Test system: HaCaT
# assay procedure: Inhibition of human HaCaT cell proliferation after 48 hrs
# Assay type: functional, cell-based
pEC50: −log10 of the molar value.
property label: pEC50

In [3]: df
Out[3]:
                              smiles_string  target  recorded_number
0    Clc1ccccc1C(c1ccccc1)(c1ccccc1)n1cccn1   HaCaT             4.40
1           O=c1c2ccccc2c2ccccc2n1CCn1cccc1   HaCaT             5.64
2    Clc1ccccc1C(c1ccccc1)(c1ccccc1)n1ccnc1   HaCaT             4.82
3  Cc1ccc(S(=O)(=O)N2CC(=O)c3ccccc3-c3ccccc32)cc1   HaCaT             5.08

----------
# assay procedure: Cytotoxicity against human HaCaT cells
# Assay type: cell-based
# experimental conditions: HaCaT cells, read-out: LD50 (the source's name)
property label: CC50 (µM)

>>> df
                                   compound  property_label  recorded_number
0  Clc1ccccc1C(c1ccccc1)(c1ccccc1)n1ccnc1 [CLOTRIMAZOLE]            CC50               40

----------
# target: Potassium voltage-gated channel subfamily A member 3 (Homo sapiens, UniProt P22001)
# Sequence (P22001 whole entry): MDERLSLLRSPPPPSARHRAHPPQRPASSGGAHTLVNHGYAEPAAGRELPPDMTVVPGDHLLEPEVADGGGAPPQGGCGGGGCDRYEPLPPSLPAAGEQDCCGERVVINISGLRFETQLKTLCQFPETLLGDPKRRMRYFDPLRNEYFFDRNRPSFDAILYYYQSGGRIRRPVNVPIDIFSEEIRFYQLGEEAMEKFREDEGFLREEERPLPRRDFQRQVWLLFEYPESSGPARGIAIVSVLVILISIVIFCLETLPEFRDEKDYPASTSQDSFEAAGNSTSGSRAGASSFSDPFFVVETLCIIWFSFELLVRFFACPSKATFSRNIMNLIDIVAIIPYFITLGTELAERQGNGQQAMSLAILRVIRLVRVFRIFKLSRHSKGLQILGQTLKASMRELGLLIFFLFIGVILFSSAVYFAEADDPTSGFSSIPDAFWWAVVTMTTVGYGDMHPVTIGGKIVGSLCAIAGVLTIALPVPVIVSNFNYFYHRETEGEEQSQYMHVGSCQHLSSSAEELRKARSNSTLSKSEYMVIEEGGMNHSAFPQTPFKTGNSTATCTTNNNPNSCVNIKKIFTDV
# assay procedure: Inhibition of cloned Kv1.3 channel expressed in mammalian cells by whole cell patch clamp assay
pIC50: −log10 of the molar value.
property label: pIC50

In [3]: df
Out[3]:
                                   compound  readout_qualifier  recorded_number
0    Clc1ccccc1C(c1ccccc1)(c1ccccc1)n1cccn1                  =             5.30
1  Cc1ccc(C(=O)N2CC(=O)c3ccccc3-c3ccccc32)cc1                  =             5.40
2  O=C1CN(C(=O)c2cccc(Cl)c2)c2ccccc2-c2ccccc21                  =             5.47
3  CCCC(C)C(=O)N1c2ccccc2-c2ccccc2C1c1cccs1 (stereo not given)                  >             5.70
4  O=C1CN(S(=O)(=O)c2cccs2)c2ccccc2-c2ccccc21                  =             4.89
5  O=C1CN(S(=O)(=O)c2ccc([N+](=O)[O-])cc2)c2ccccc2-c2ccccc21                  <             5.00
6  Cc1ccc(S(=O)(=O)N2CC(=O)c3ccccc3-c3ccccc32)cc1                  =             5.24
7    Clc1ccccc1C(c1ccccc1)(c1ccccc1)n1ccnc1                  =             5.22
8  O=C1CN(S(=O)(=O)c2cccc(Cl)c2)c2ccccc2-c2ccccc21                  =             5.44
9  CC(=O)N1c2ccccc2-c2ccccc2C1c1c[nH]c2ccccc12 (stereo not given)                  =             5.30

----------
# Tested on: PBMC
# assay procedure: Immunosuppressant activity in human effector memory T cells of PBMC assessed as inhibition of anti-CD3 antibody-induced cell proliferation by ELISA in presence of 5 uM IK1-blocker 5-(4-Chloro-benzenesulfonyl)-5,6-dihydro-dibenzo[b,d]azepin-7-one
# Type: functional, cell-based
property label: EC50 (nM)

                           smiles_string  unit_label  recorded_number
0  O=c1ccc2c(OCCCCOc3ccccc3)c3ccoc3cc2o1          nM             1200

----------
# Test system: PBMC
# assay procedure: Immunosuppressant activity in human effector memory T cells of PBMC assessed as inhibition of anti-CD3 antibody-induced cell proliferation by ELISA in presence of 5 uM Kv1.3-blocker PAP1
# Assay type: functional, cell-based
pEC50: −log10 of the molar value.
Entries and their measured pEC50 follow.
property label: pEC50

                              smiles_string  property_label  recorded_number
0  Cc1ccc(S(=O)(=O)N2CC(=O)c3ccccc3-c3ccccc32)cc1           pEC50             5.60
1    Clc1ccccc1C(c1ccccc1)(c1ccccc1)n1cccn1           pEC50             7.60

----------
# target: Potassium voltage-gated channel subfamily A member 3 (Homo sapiens, UniProt P22001)
# assay procedure: Inhibition of cloned Kv1.3 channel expressed in mammalian cells at 2 uM by whole cell patch clamp assay
# Assay type: cell-based
Note to self: values exactly at 30% are T. So inhibition at or above 30% is T, below is F.

In [3]: df
Out[3]:
                                   compound  assigned_label
0  O=C(O)C(=O)C1c2ccccc2-c2ccccc2N1C(=O)c1ccco1 (centres undefined)               T
1  CCCC(C)C(=O)N1c2ccccc2-c2ccccc2C1c1cccs1 (centres undefined)               T
2  O=C(c1ccc[nH]1)C1c2ccccc2-c2ccccc2N1C(=O)c1ccco1 (centres undefined)               F
3  O=C(c1cc(F)ccc1F)N1c2ccccc2-c2ccccc2C1c1cccs1 (centres undefined)               F
4  O=C(CCc1ccccc1)C1c2ccccc2-c2ccccc2N1C(=O)c1ccco1 (centres undefined)               F
5  O=C(c1ccc2c(c1)OCO2)C1c2ccccc2-c2ccccc2N1C(=O)c1ccco1 (centres undefined)               F
6  O=C(CCC1CCCC1)C1c2ccccc2-c2ccccc2N1C(=O)c1ccco1 (centres undefined)               F
7  COc1ccc(C(=O)C2c3ccccc3-c3ccccc3N2C(=O)c2ccco2)cc1 (centres undefined)               F
